// provenance: PubChem BioAssay (NCATS)

procedure_details: Cellular Toxicity (caspase-3) NIH 3T3 (AID 666);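 note: caspase signal read after 16 h compound exposure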
assay_setup: NIH 3T3 caspase-3 activation, apoptosis/toxicity, 0% DMSO, 100% is 100 µM tamoxifen; series mostly up to 92.2 µM
Inconclusive results are not listed. Active and inactive are the calls of the source. Calls come from the whole dose curve; as a rule, active = well fitted activation curve with a large enough effect; inconclusive = small, poorly fitted or top-dose-only effect, or effect the other way; inactive = flat fitted curve, though single readings scatter.
measurement_name: outcome

Sample records with outcome:
compound=CCCCCCCC(=O)OCC(COC(=O)CCCCCCC)OC(=O)CCCCCCC result=inactive
compound="O=C(c1ccccc1)C(O)c1ccccc1 (configuration not stated)" result=inactive
compound=Nc1ccc(S(=O)(=O)c2ccc(N)cc2)cc1 result=inactive
compound=CCN(CC)C(=O)c1cccc(C)c1 result=inactive
compound=C=CCNC(N)=S result=inactive

I have 2 compounds here; please give me outcome for each one.
1. Cc1c(N(C)C)c(=O)n(-c2ccccc2)n1C
2. FC(F)(F)C(Cl)Br (configuration not stated)

**Result**
1. inactive
2. inactive
